The following molecules are shown together with reported mass density values.
Conditions: 332.15 K; 101.33 kPa; Liquid; Vibrating tube method
measured_parameter: mass density (kg/m3)

molecule: CCn1cc[n+](C)c1.COS(=O)(=O)[O-] [1-ethyl-3-methylimidazolium methylsulfate]
unit_name: kg/m3
measured_result: 1263.06
//
molecule: CCCCCCCCOS(=O)(=O)[O-].CCn1cc[n+](C)c1 [1-ethyl-3-methylimidazolium octyl sulfate]
unit_name: kg/m3
measured_result: 1073.23
//
molecule: CCn1cc[n+](C)c1.O=S(=O)([O-])O [1-ethyl-3-methylimidazolium hydrogen sulfate]
unit_name: kg/m3
measured_result: 1345.2
